Source: PubChem BioAssay (NCI)

# Tested on: SK-MEL-2 melanoma
# assay.comment: NCI tumour cell line growth inhibition, 48 h
endpoint.name: TGI

Problem: # query: TGI of entry CN1CCCNc2c(c(=O)c2=O)NCCCN(C)CCCNc2c(c(=O)c2=O)NCCCN(C)CCCNc2c(c(=O)c2=O)NCCCN(C)CCCNc2c(c(=O)c2=O)NCCCN(C)CCCNc2c(c(=O)c2=O)NCCCN(C)CCCNc2c(c(=O)c2=O)NCCCN(C)CCCNc2c(c(=O)c2=O)NCCC1
Result: 31.6 µM

Problem: Bench note: what TGI did O=C(OCc1ccccc1)N1CCN(/[N+]([O-])=N/Oc2ccc([N+](=O)[O-])cc2[N+](=O)[O-])CC1 show?
Result: 57 µM

Problem: Can you look up the measured TGI of O=C1C(/C=C/c2ccc(Cl)cc2)=NNC2N1N=C1NC(=O)C3(NN12)c1ccccc1-c1ccccc13 (stereo unspecified) for me?
Result: > 100 µM

Problem: Which value of TGI has been reported for CCCn1c(SCC)c2ccccc2c1-c1nc(F)nc(F)n1 in the records?
Result: > 100 µM

Problem: Given CCOC(=O)C(=O)Nc1c(F)cc(F)cc1Br , state its recorded TGI.
Result: > 100 µM

Problem: Given the compound CC1=C2C(=O)[C@H]3[C@@H](CC=C4C[C@@H](O)CC[C@@]43C)[C@@H]2CC[C@]12O[C@@H]1C[C@H](C)CN[C@H]1[C@H]2C , what is its reported TGI?
Result: > 72.5 µM

Problem: I have this compound here, COc1cc2c(cc1OC)-c1cc3cc(OC)c(OC)cc3n1CC2 , and I need its recorded TGI.
Result: > 100 µM

Problem: Form field: reported TGI of CN(NC(=O)CCCl)C1=NCCN1
Result: > 100 µM

Problem: Report TGI for CC1(C)CC[C@]2(C)CC=C3[C@]4(C)CC[C@H]5C(C)(C)C(=O)CC[C@]5(C)[C@H]4CC[C@@]3(C)[C@H]2C1 please.
Result: > 100 µM

Problem: Please report the recorded TGI for O=c1oc2ccccc2c(O)c1C(c1ccco1)c1c(O)c2ccccc2oc1=O .
Result: > 100 µM

Problem: Which value of TGI has been reported for CCCCn1c(C)c(C(=O)OCC)s/c1=N/Nc1nc2ccccc2nc1-c1ccccc1 in the records?
Result: > 100 µM

Problem: Would you mind telling me what TGI value was observed for N#Cc1c(-c2ccc(Cl)cc2)n(O)c2ccccc12 ?
Result: 5.46 µM

Problem: GET /values?readout=TGI&item= CCCCCCOc1ccc(C(=O)NOCc2ccccc2)cc1
Result: > 100 µM

Problem: Which TGI is listed for COc1cc(C2c3cc4c(cc3OC(Nc3ccc(C(=O)O)cc3)C2C)OCO4)cc(OC)c1OC (stereo unspecified) ?
Result: > 59.9 µM

Problem: // lookup TGI for COc1nc(SC)nc2c1cnn2C1OC(C(O)CO)C(OC)C1O (stereo unspecified)
Result: > 100 µM

Problem: May I ask what TGI has been recorded for C=C/C=C(\NC(=O)C(Cl)(Cl)Cl)[Si](C)(C)C ?
Result: > 100 µM
